Test system: Pediococcus
Assay: Fold increase in resistance, ratio of IC50 for chlorguanide triazine-resistant Pediococcus cerevisiae ATCC 808 to IC50 for sensitive Pediococcus cerevisiae ATCC 808
Assay type: functional
Rule: Ratio IC50 of 5 or more gives y; anything lower gives n.

Sample answers from the record:
CCN1CCCC(Nc2cc(C)nc(NC(=N)Nc3ccc(Cl)c(Cl)c3)n2)C1 (configuration not stated): n
Nc1nc(N)c2cc(Oc3cc(Cl)cc(Cl)c3)ccc2n1: y
CCN(CC)CCCC(C)Nc1ccnc2cc(Cl)ccc12 (configuration not stated) [CHLOROQUINE]: n

Lookup: API: above_or_equal(metric=Ratio IC50, cutoff=5) for item "Nc1ncc(Cc2ccc3c(c2)OCO3)c(N)n1"
Found: y
